Provenance of the data: ChEMBL document CHEMBL1201862

# Tested on: UO-31
# Protocol details: NCI tumour cell line growth inhibition, 48 h
Active and inactive are the calls of the source. No stated cut-off is given here; in the data, active = GI50 up to about 1.1 µM and inactive = higher.
Measured attribute: GI50

> print(dat)
                                    molecule               result
 1  COC1=CC23C=CC1[C@@H](c1ccccc1)C2=C(C)C(=O)N3C(=O)NC1CCCCC1 (stereo partly specified)   20.7 µM (inactive)
 2  Cn1nc(-c2ccc(S(=O)(=O)N/C(=N/c3ccc(Cl)cc3)NN)s2)cc1C(F)(F)F   14.6 µM (inactive)
 3                O=c1[nH]nc(Cc2ccccc2)[nH]1  > 100 µM (inactive)
 4  CC1(C(=O)O)CCC2(C)CCC3(C)C(=CC(=O)C4C5(C)CCC(O)C(C)(C)C5CCC43C)C2C1 (stereo unspecified)   23.6 µM (inactive)
 5                CCCCCCCC/C=C\CCCCCCCC(=O)O    158 µM (inactive)
 6  CC(C)(C)C1CCC2(CC1)c1[nH]c3ccccc3c1C1(CCC(C(C)(C)C)CC1)c1[nH]c3ccccc3c12 (stereo unspecified)  > 100 µM (inactive)
 7  C/C(=N\N(C)C)C(CN1CCCCC1)C(c1ccccc1)c1c(O)c2ccccc2oc1=O (stereo unspecified)   32.6 µM (inactive)
 8  Cc1nn(-c2ccccc2)c(C)c1/C=N/NC(=O)c1sc(=S)n(-c2ccccc2)c1N   3.74 µM (inactive)
 9  Nc1ncnc2c1ncn2C1OC(CO)CC1O (stereo unspecified)  > 100 µM (inactive)
10  O=C(O)C1Cc2[nH]c3ccccc3c2C2CCCC12 (stereo unspecified)  > 100 µM (inactive)
11  NCCCC[C@H](N)C(=O)Nc1ccc(-c2nc3ccccc3s2)cc1Cl   6.35 µM (inactive)
12  CCOC(=O)c1cc(NC(=O)c2ccccc2)c(=O)n2c(cc3c(Cl)cccc32)c1O  > 100 µM (inactive)
13  COc1ccc([C@]23CCN(S(=O)(=O)c4ccc(C)cc4)[C@H]2[C@H](CO)C2(CC3)OCC(C)(C)CO2)cc1OC  > 100 µM (inactive)
14  CCOC(O)(NC(=O)C(C(F)(F)F)C(F)(F)F)C(F)(F)F (stereo unspecified)  > 100 µM (inactive)
15  CCOC1=NC(C(F)(F)F)(C(F)(F)F)N=C(/N=C(/N)N(C)C(C(C)C)P(=O)(OC(C)C)OC(C)C)O1 (stereo unspecified)  > 100 µM (inactive)
16  [N-]=[N+]=NC(c1cn(C2CC(O)C(CO)O2)c(=O)[nH]c1=O)C(Br)I (stereo unspecified)  > 100 µM (inactive)
17  C/C(CC(=O)Nc1ccc(C)c(C)c1)=N\N(c1ccccc1)c1ccccc1     46 µM (inactive)
18    Cn1c(=O)cc(NNc2ccc(Cl)c(Cl)c2)[nH]c1=O   12.1 µM (inactive)
19  CC(C)(C)OC(=O)NCC(=O)N(CCc1ccc(Cl)c(Cl)c1)CCN1CCCC1   14.6 µM (inactive)
20      Clc1ccc(-c2nn3c(-c4ccncc4)nnc3s2)cc1  > 100 µM (inactive)
21          O/N=C1/COC(C(F)(F)F)(C(F)(F)F)C1  > 100 µM (inactive)

* * *

# Test system: HT-29
# Protocol details: NCI tumour cell line growth inhibition, 48 h
Calls of active or inactive are those of the source. No stated cut-off is given here; in the data, active = GI50 up to about 1.1 µM and inactive = higher.
Measured attribute: GI50

> print(dat)
                                    compound               result
 1  O=S1(=O)OCCOS(=O)(=O)C1C1c2ccccc2-c2ccccc21     34 µM (inactive)
 2  O=C1Oc2ccccc2C(=O)/C1=C1/C=C(c2ccccc2)SS1   40.6 µM (inactive)
 3  CCOC(=O)c1cc(C(=O)c2ccccc2)n2nc(-c3ccc(Cl)cc3)ccc12   23.7 µM (inactive)
 4       NNC(=O)c1ccc(OCc2nc3ccccc3[nH]2)cc1  > 100 µM (inactive)
 5  CC1C=C(OC(=O)c2ccccc2)C(=O)C(n2cc(F)c(=O)n(C(=O)c3ccccc3)c2=O)O1 (configuration not stated)   34.7 µM (inactive)
 6   O=C(Nc1ccc2c(c1)oc(=O)c1ccccc12)C(Cl)Cl   28.1 µM (inactive)
 7  COc1ccc(N2C(=O)C(C#N)=C(SC)C(C#N)C2=O)cc1 (configuration not stated)  > 100 µM (inactive)
 8  COc1ccc(OC)c2sc(N3C(=O)/C(=C/c4cccc([N+](=O)[O-])c4)N=C3c3ccccc3)nc12  > 100 µM (inactive)
 9  COC(=O)C[C@H](COCc1ccccc1)NC(=O)C[C@H](COCc1ccccc1)NC(=O)OC(C)(C)C     30 µM (inactive)
10           COc1ccc2c(C3(O)CCNCC3)c[nH]c2c1  > 100 µM (inactive)
11  Cc1ccc(NC(=O)CC/C(CC(=O)C(C)(C)C)=N/NC(=O)c2cc3ccccc3cc2O)cc1C   41.7 µM (inactive)
12              N=c1oc2cc(O)c(O)cc2cc1C(N)=O  > 100 µM (inactive)
13                     CO/C(C)=N/CCC1=CCCCC1  > 100 µM (inactive)
14  O=C1c2ccccc2-c2nc(-c3ccccc3)cc3c2c1nc1ccccc13   13.2 µM (inactive)
15  CCC(C)NC1=NCC(C)S1 (configuration not stated)  > 100 µM (inactive)
16  CC1(O)C(C)(O)C(C)(O)C1(C)O (configuration not stated)  > 100 µM (inactive)
17  COc1ccccc1N1CCN(CCCN2C(C(=O)c3ccccc3)=C(O)c3c(C)cc(C)nc3S2(=O)=O)CC1   34.8 µM (inactive)
18  Cc1nc(N)nn1C1OCC(O)C(O)C1O (configuration not stated)  > 100 µM (inactive)
19  NCCN1C(=O)c2ccccc2C1c1ccc(Cl)cc1 (configuration not stated)  > 100 µM (inactive)
20          O/N=C1/COC(C(F)(F)F)(C(F)(F)F)C1  > 100 µM (inactive)
21  CC[N+](CC)(CC)/C(=N\S(=O)(=O)c1ccc(Cl)cc1)[N-]S(=O)(=O)c1cc(C)c(Cl)cc1S   41.7 µM (inactive)
22  C=C1[C@@](C)([C@@H]2CCCS2)[C@H]2C(C)=C[C@]1(C)n1c(=O)n(-c3ccccc3)c(=O)n12  > 100 µM (inactive)
